Cited source for all entries: ChEMBL document CHEMBL5058577

# Tested on: U2OS
# test_description: Multiplex assay against U2OS
# Assay type: toxicity, cell-based
# measurement_context: human, 24 h, 10 µM, compound concentration 10 uM, replicate 2
endpoint_name: Population Tubulin-Different-Phenotype (%)
Give bare numbers, in %.

Worked examples, 3 compounds total:
# compound, unit_abbreviation, result_number
rows = [
    ("COCCCN1CCC(NC(=O)c2cc(Cl)c(N)c3c2OCC3)CC1 [PRUCALOPRIDE]", "%", 3),
    ("O=C(Nc1cc(-c2ccccc2)nn1-c1ccccc1F)c1ccc([N+](=O)[O-])cc1", "%", 8),
    ("Cn1cc(C(=O)OCC2CCN(CCNS(C)(=O)=O)CC2)c2ccccc21", "%", 8),
]

Okay, next one:
If you can, please state the reported Population Tubulin-Different-Phenotype (%) value of `COCCn1c(C)c(C)s/c1=N\C(=O)C1C(C)(C)C1(C)C` .
9

* * *

# Test system: Fibroblast
# test_description: Multiplex assay against human fibroblast
# Assay type: toxicity, cell-based
# measurement_context: 12 h, 10 µM, compound concentration 10 uM, replicate 2
Label rule, in plain words: Population Apoptotic (%) of 40% and up is criterion met, under 40% is criterion not met.

Form field: Population Apoptotic (%) at least 40%? Entry: `OCCCNc1cc(-c2ccnc(Nc3cccc(Cl)c3)n2)ccn1`
criterion met

Form field: Population Apoptotic (%) at least 40%? Entry: `Nc1nc(CC(=O)Nc2ccc(CCNC[C@H](O)c3ccccc3)cc2)cs1`
criterion not met

Form field: Population Apoptotic (%) at least 40%? Entry: O=C(NCCNCC(O)COc1ccc(O)cc1)N1CCOCC1.O=C(NCCNCC(O)COc1ccc(O)cc1)N1CCOCC1.O=C(O)/C=C/C(=O)O (stereo unspecified) [XAMOTEROL FUMARATE]
criterion not met

* * *

For each of the compounds below, state its Population Tubulin-Different-Phenotype (%).
# Tested on: U2OS
# test_description: Multiplex assay against U2OS
# Assay type: toxicity, cell-based
# measurement_context: human, 48 h, 10 µM, compound concentration 10 uM, replicate 1
One number for each entry, in %.

Worked examples, 2 compounds total:
# given_smiles, result_number
rows = [
    ("C[C@H](NC(=O)CNC(=O)c1cccc(Cl)c1)c1ccccc1", 4),
    ("CCCCCCNC(=O)Nc1ccc(S(=O)(=O)Nc2ccc(CCNC[C@H](O)COc3ccc(O)cc3)cc2)cc1", 4),
]

Okay, next one:
If you can, please state the reported Population Tubulin-Different-Phenotype (%) value of `CN(C)C(=O)Cn1cc(-c2ccc(-c3nnc4ccccn34)cc2)cn1` .
4

* * *

For each of the molecules below, state its Population Fragmented Nuclei (%).
# System: U2OS
# test_description: Multiplex assay against U2OS
# Assay type: toxicity, cell-based
# measurement_context: human, 12 h, 10 µM, compound concentration 10 uM, replicate 1
One number for each entry, in %.

Worked examples, 10 molecules total:
# molecule, endpoint_name, result_number
records = [
    ("CC(C)(C)c1ccc(CSc2cnn(C(C)(C)C)c(=O)c2Cl)cc1 [PYRIDABEN]", "Population Fragmented Nuclei (%)", 28),
    ("COc1cc(OC2CCN(C(C)=O)CC2)ccc1C(=O)N1CCC(N2C(=O)OCc3ccccc32)CC1", "Population Fragmented Nuclei (%)", 23),
    ("CN(C)C(=O)Cn1cc(-c2ccc(-c3nnc4ccccn34)cc2)cn1", "Population Fragmented Nuclei (%)", 26),
    ("CN1CCN(c2ccc(Nc3c4ccccc4nc4ccccc34)cc2)CC1.Cl.Cl.O", "Population Fragmented Nuclei (%)", 54),
    ("Cc1cc(-c2ccc3c(c2)CC[C@H]3N2CC3(CCN(C(=O)Cc4cn5cc(C)sc5n4)CC3)C2)ncn1 [PF-5190457]", "Population Fragmented Nuclei (%)", 18),
    ("Cc1cc(O)c(-c2ccc([C@@H](C)CN(C)C)cc2)c2c1[nH]c(=O)c1sccc12", "Population Fragmented Nuclei (%)", 28),
    ("CCCCC[C@H](O)/C=C/[C@H]1[C@H](O)CC(=O)[C@@H]1CCCCCCC(=O)O [ALPROSTADIL]", "Population Fragmented Nuclei (%)", 23),
    ("COc1ccc2[nH]c(I)c(CCNC(C)=O)c2c1 [IODOMELATONIN]", "Population Fragmented Nuclei (%)", 25),
    ("Nc1nc(CC(=O)Nc2ccc(CCNC[C@H](O)c3ccccc3)cc2)cs1 [MIRABEGRON]", "Population Fragmented Nuclei (%)", 18),
    ("N[C@](CC1c2ccccc2Oc2ccccc21)(C(=O)O)[C@H]1C[C@@H]1C(=O)O", "Population Fragmented Nuclei (%)", 18),
]

Items follow; give Population Fragmented Nuclei (%) for each.
1. CCn1c(-c2nc3cc(C(=O)N4CCCC(N)C4)ccc3n2C)cc2ccccc21.Cl (centres undefined)
2. COCCn1c(C)c(C)s/c1=N\C(=O)C1C(C)(C)C1(C)C
3. O=C(O)CCC/C=C\CC1C(O)CC(O)C1/C=C/C(O)COc1cccc(Cl)c1 (centres undefined) [CLOPROSTENOL]
4. COCCCN1CCC(NC(=O)c2cc(Cl)c(N)c3c2OCC3)CC1 [PRUCALOPRIDE]
5. Nc1nc(-c2ccco2)c2cnn(Cc3ccccc3F)c2n1
6. Cc1nn(C)c2nc(NNC(=O)Nc3cc(Cl)nc(Cl)c3)cc(C(C)C)c12
7. C[C@H](NC(=O)CNC(=O)c1cccc(Cl)c1)c1ccccc1

[24, 33, 28, 22, 41, 21, 24]

Items follow; give Population Fragmented Nuclei (%) for each.
1. CCCCCCNC(=O)Nc1ccc(S(=O)(=O)Nc2ccc(CCNC[C@H](O)COc3ccc(O)cc3)cc2)cc1 [L-755507]
2. O=c1ccc2ccc(OCCCCN3CCN(c4cccc5sccc45)CC3)cc2[nH]1 [BREXPIPRAZOLE]

31
31
